Every entry's value here was drawn from patent US7018981B2.

# system-tested: motilin receptors (Oryctolagus cuniculus)
# Construct: A protein solution was prepared by homogenizing the duodenum isolated from a killed rabbit
# experimental-protocol: Motilin receptor binding test (125I motilin, rabbit duodenum protein solution)
# protocol-conditions: concentration inhibiting 50% of specific binding of 25 pM 125I motilin; rabbit duodenum homogenate, 2 hours at 25° C.
# Method: Motilin receptor binding activities of compounds of the present invention were tested as follows [Vantrappen et al., Regul. A protein solution was prepared by homogenizing the duodenum isolated from a killed rabbit in 50 mM Tris after stripping the mucosa. […] The difference between the radioactivity of the protein solution incubated alone and the radioactivity of the protein solution incubated with a large excess of motilin (10^−7 M) was recorded as specific binding of motilin to motilin receptors.
Where a SMILES comes first, the peptide text is derived from it. Bridges are numbered along the chain shown (N, C = ends). [ ]: non-standard residue; d: D form. Tyr(3-tBu) = CC(C)(C)c1cc(C[C@H](N)C(=O)O)ccc1O; Phe(4-F) = N[C@@H](Cc1ccc(F)cc1)C(=O)O; NMeLys(Me) = CNCCCC[C@H](NC)C(=O)O; NMeK = CN[C@@H](CCCCN)C(=O)O; GABA = NCCCC(=O)O; βAla = NCCC(=O)O
Quick reference: IC50 of the listed items.
State the answer as a number, implicitly in nM.

motilin receptors (Oryctolagus cuniculus) data for CN1CCCC[C@H](N(C)C(=O)[C@@H](N)Cc2ccc(F)cc2)C(=O)N[C@@H](Cc2ccc(O)c(C(C)(C)C)c2)C(=O)NCCC1=O [Example 5] (H-[Phe(4-F)][NMeLys(Me)][Tyr(3-tBu)][βAla]; lactam 2-C) ; its IC50: 1.4

The recorded IC50 with motilin receptors (Oryctolagus cuniculus) for CN(C(=O)[C@@H](N)Cc1ccc(F)cc1)[C@H]1CCCCNC(=O)CCCNC(=O)[C@H](Cc2ccc(O)c(C(C)(C)C)c2)NC1=O [Example 6] (H-[Phe(4-F)][NMeK][Tyr(3-tBu)][GABA]; lactam 2-C) was 0.87

###

# system-tested: motilin receptors (Oryctolagus cuniculus, UniProt G1T803)
# Construct: A protein solution was prepared by homogenizing the duodenum isolated from a killed rabbit
# Sequence (G1T803 1-400): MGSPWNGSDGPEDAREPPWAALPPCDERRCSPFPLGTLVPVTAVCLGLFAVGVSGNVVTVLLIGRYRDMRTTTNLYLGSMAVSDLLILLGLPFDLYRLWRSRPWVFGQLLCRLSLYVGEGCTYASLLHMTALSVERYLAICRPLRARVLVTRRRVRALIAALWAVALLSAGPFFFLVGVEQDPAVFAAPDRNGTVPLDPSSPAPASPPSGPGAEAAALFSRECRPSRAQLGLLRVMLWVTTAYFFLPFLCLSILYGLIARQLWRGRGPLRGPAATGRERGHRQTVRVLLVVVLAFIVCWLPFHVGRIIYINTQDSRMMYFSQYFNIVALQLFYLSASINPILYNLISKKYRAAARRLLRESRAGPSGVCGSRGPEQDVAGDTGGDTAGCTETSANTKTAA
# experimental-protocol: Motilin receptor binding test (125I motilin, rabbit duodenum protein solution)
# protocol-conditions: concentration inhibiting 50% of specific binding of 25 pM 125I motilin; rabbit duodenum homogenate, 2 hours at 25° C.
Where a SMILES comes first, the peptide text is derived from it. Bridges are numbered along the chain shown (N, C = ends). [ ]: non-standard residue; d: D form. Tyr(3-tBu) = CC(C)(C)c1cc(C[C@H](N)C(=O)O)ccc1O; Phe(4-F) = N[C@@H](Cc1ccc(F)cc1)C(=O)O; NMeK = CN[C@@H](CCCCN)C(=O)O; βAla = NCCC(=O)O
Response field label takes MET when IC50 is strictly below 0.8 nM and NOT MET in all other cases.

Use the examples below as a reference point.
molecule	system-tested	group-label
CC(C)(C)c1cc(C[C@@H]2NC(=O)[C@@H](NC(=O)[C@@H](N)Cc3ccc(F)cc3)CCCCNC(=O)CCNC2=O)ccc1O [Example 7] (H-[Phe(4-F)]K[Tyr(3-tBu)][βAla]; lactam 2-C)	motilin receptors (Oryctolagus cuniculus, UniProt G1T803)	NOT MET
CN(C(=O)[C@@H](N)Cc1ccccc1)[C@H]1CCCCNC(=O)CCNC(=O)[C@H](Cc2ccc(O)c(C(C)(C)C)c2)NC1=O [Example 10] (H-F[NMeK][Tyr(3-tBu)][βAla]; lactam 2-C)	motilin receptors (Oryctolagus cuniculus, UniProt G1T803)	NOT MET
CC(=O)N1CCCC[C@H](N(C)C(=O)[C@@H](N)Cc2ccc(F)cc2)C(=O)N[C@@H](Cc2ccc(O)c(C(C)(C)C)c2)C(=O)NCCC1	motilin receptors (Oryctolagus cuniculus, UniProt G1T803)	NOT MET

Now consider the entry below.
Q. Please determine if CN(C(=O)[C@@H](N)Cc1ccc(F)cc1)[C@H]1CCCCNC(=O)CNC(=O)[C@H](Cc2ccc(O)c(C(C)(C)C)c2)NC1=O [Example 3] (H-[Phe(4-F)][NMeK][Tyr(3-tBu)]G; lactam 2-C) is below 0.8 nM in terms of IC50.
A. MET
